These data points were gathered from patent US9040663B2.

- TARGET_OR_SYSTEM: hMC4-R (Homo sapiens (Human), UniProt P32245)
- Sequence (P32245 whole entry): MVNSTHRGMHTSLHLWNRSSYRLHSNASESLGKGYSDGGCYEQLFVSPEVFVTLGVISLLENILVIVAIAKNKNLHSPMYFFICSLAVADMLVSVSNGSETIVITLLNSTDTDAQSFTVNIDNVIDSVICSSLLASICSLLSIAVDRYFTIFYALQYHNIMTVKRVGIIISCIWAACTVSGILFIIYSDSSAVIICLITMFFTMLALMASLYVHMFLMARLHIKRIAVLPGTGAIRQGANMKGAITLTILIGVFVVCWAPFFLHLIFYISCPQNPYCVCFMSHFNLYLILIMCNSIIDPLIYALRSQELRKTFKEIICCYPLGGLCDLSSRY
- PROTOCOL_TEXT: Competitive inhibition binding assay using [I125]-NDP-α-MSH, hMC4-R
- RECORDED_CONDITIONS: membranes of HEK-293 cells expressing recombinant hMC4-R, read-out: MC4-R Ki
Positions of bridges follow the written chain, without caps; N, C: chain ends. Non-standard residues stand in square brackets, D forms with d. Residues, ends and D or L forms follow the SMILES beside them. dPhe(2-F) = N[C@H](Cc1ccccc1F)C(=O)O; Orn = NCCC[C@H](N)C(=O)O
// values below are reported Ki
QUANTITY_KIND: Ki (nM)

CC(=O)N[C@@H](CCCNC(=N)N)C(=O)N[C@H]1CCC(=O)NCCC[C@@H](C(N)=O)NC(=O)[C@H](Cc2c[nH]c3ccccc23)NC(=O)[C@H](CCCNC(=N)N)NC(=O)[C@@H](Cc2ccc(Cl)cc2Cl)NC(=O)[C@H](CCN)NC1=O	0.055
CC(=O)N[C@@H](CCCNC(=N)N)C(=O)N[C@H]1CC(=O)NCCCC[C@@H](C(N)=O)NC(=O)[C@H](Cc2c[nH]c3ccccc23)NC(=O)[C@H](CCCNC(=N)N)NC(=O)[C@@H](Cc2ccc(F)cc2)NC(=O)[C@@H]2CCCN2C1=O	4
CC(=O)N[C@@H](CCCNC(=N)N)C(=O)N[C@H]1CCCNC(=O)CC[C@@H](C(N)=O)NC(=O)[C@H](Cc2c[nH]c3ccccc23)NC(=O)[C@H](CCCNC(=N)N)NC(=O)[C@@H](Cc2ccccc2F)NC(=O)[C@@H]2CCCN2C1=O [Example 105] (Ac-R[Orn]P[dPhe(2-F)]RWE-NH2; lactam 2-7)	7
CC(=O)N[C@@H](CCCNC(=N)N)C(=O)N[C@H]1CCCNC(=O)CC[C@@H](C(N)=O)NC(=O)[C@H](Cc2c[nH]c3ccccc23)NC(=O)[C@H](CCCNC(=N)N)NC(=O)[C@@H](Cc2ccccc2C)NC(=O)[C@H](CCC(N)=O)NC1=O	6
